Just for reference, patent US8785488B2 is where these values come from.

biological target: human TGR5 (h-TGR5) (Homo sapiens, UniProt Q8TDU6); construct: expressed in transfected cells; experiment: TGR5/CRE-Luciferiase Assay (HEK 293 hTGR5/CRE-Luc cells); format: cell-based; conditions: h-TGR5 CRE-Luc EC50, Table 1; read-out: CRE-Luc (EC50)
pEC50: −log10 of the molar value.
endpoint name: pEC50

Examples with their reported pEC50 follow.
INSERT INTO assay_data (compound_structure_string, study_target, endpoint_name, observed_value) VALUES
  ('COc1cc(-n2c(C(C)(C)c3ccc(Cl)c(Cl)c3)cnc2SCc2c(F)cc(C(=O)O)cc2F)ccc1F', 'human TGR5 (h-TGR5) (Homo sapiens, UniProt Q8TDU6)', 'pEC50', '> 7.00'),
  ('CC(C)(c1ccc(Cl)c(Cl)c1)c1cnc(SCc2ccc(C#N)c(Cl)c2)n1-c1ccc(F)cc1', 'human TGR5 (h-TGR5) (Homo sapiens, UniProt Q8TDU6)', 'pEC50', '6.00 to 7.00'),
  ('CC(C)(c1ccc(Cl)c(Cl)c1)c1cnc(CCc2c(F)cc(C(=O)NCCS(=O)(=O)O)cc2Cl)n1-c1ccc(F)cc1', 'human TGR5 (h-TGR5) (Homo sapiens, UniProt Q8TDU6)', 'pEC50', '> 7.00');

Okay, next one:
Prompt: Request the reported pEC50 associated with CC(C)(c1ccc(Cl)c(Cl)c1)c1cnc(COc2ccc(-c3nn[nH]n3)cc2Cl)n1-c1ccc(F)cc1
Response: 5.00 to 6.00

---

Molecular target: human TGR5 (h-TGR5) (Homo sapiens, UniProt Q8TDU6)
Construct: expressed in transfected cells
Sequence (Q8TDU6 1-330): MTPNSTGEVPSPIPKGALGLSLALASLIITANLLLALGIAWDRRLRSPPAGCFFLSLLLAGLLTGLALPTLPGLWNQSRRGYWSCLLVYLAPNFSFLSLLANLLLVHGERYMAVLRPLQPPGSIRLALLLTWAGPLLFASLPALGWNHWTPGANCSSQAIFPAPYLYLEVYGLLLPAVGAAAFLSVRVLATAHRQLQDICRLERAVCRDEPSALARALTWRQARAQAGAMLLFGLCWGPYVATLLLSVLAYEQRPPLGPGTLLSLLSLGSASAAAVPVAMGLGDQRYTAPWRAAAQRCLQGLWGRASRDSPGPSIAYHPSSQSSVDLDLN
Assay: TGR5/CRE-Luciferiase Assay (HEK 293 hTGR5/CRE-Luc cells)
Format: cell-based
Conditions: h-TGR5 CRE-Luc EC50, Table 1; read-out: CRE-Luc (EC50)
pEC50: −log10 of the molar value.
endpoint name: pEC50

Examples with their reported pEC50 follow.
INSERT INTO results (compound_structure_string, observed_value) VALUES
  ('CC(=O)N1CCC(CSc2ncc(C(C)(C)c3ccc(Cl)c(Cl)c3)n2-c2ccc(F)cc2)CC1', '> 7.00'),
  ('COc1cc(C(C)(C)c2cnc(SCc3c(F)cc(OCCCNC(=N)N)cc3F)n2-c2ccc(F)cc2)ccc1Cl', '> 7.00'),
  ('CC(C)(c1ccc(Cl)c(OCCCN2CCOCC2)c1)c1cnc(SCc2c(F)cccc2Cl)n1-c1ccc(F)cc1', '6.00 to 7.00'),
  ('CC(C)(c1ccc(Cl)cc1)c1cnc(SCc2c(F)cccc2Cl)n1-c1ccc(F)cc1', '6.00 to 7.00'),
  ('CC(C)(c1ccc(Cl)c(Cl)c1)c1cnc(SCc2ccc(F)cc2Cl)n1-c1ccc(F)c(C(F)(F)F)c1', '5.00 to 6.00'),
  ('CC(C)NC(=O)NS(=O)(=O)c1ccc(CSc2ncc(C(C)(C)c3ccc(C(F)F)c(F)c3)n2-c2ccc(F)cc2)c(Cl)c1', '6.00 to 7.00'),
  ('COc1cc(C(C)(C)c2cnc(SCc3c(F)cc(C(=O)Nc4nnn[nH]4)cc3Cl)n2-c2ccc(F)cc2)ccc1Cl', '> 7.00');

Prompt: So what pEC50 did COC(=O)c1cc(CSc2ncc(C(C)(C)c3ccc(Cl)c(Cl)c3)n2-c2ccc(F)c(OC)c2)ccc1C#CCNC(=N)N get with human TGR5 (h-TGR5) (Homo sapiens, UniProt Q8TDU6)?
Response: 6.00 to 7.00

---

For each record, write down the corresponding pEC50.
Target: human TGR5 (h-TGR5) (Homo sapiens)
Construct: expressed in transfected cells
Sequence (Q8TDU6 1-330): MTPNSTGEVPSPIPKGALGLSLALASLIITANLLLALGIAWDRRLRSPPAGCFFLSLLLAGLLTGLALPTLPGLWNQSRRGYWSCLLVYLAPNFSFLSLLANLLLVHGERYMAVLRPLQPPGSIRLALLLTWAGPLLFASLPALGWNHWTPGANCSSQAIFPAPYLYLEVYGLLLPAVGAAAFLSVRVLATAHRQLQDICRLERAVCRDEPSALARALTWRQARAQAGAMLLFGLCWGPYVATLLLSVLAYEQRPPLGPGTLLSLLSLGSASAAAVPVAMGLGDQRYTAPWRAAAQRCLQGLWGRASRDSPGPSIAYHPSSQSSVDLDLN
Test: TGR5/CRE-Luciferiase Assay (HEK 293 hTGR5/CRE-Luc cells)
Type: cell-based
Settings: h-TGR5 CRE-Luc EC50, Table 1; read-out: CRE-Luc (EC50)
pEC50: −log10 of the molar value.

Examples with their reported pEC50 follow.
INSERT INTO results (compound_structure_string, endpoint_name, observed_value) VALUES
  ('CC(C)(c1ccc2onc(N)c2c1)c1cnc(SCc2c(F)cc(C(=O)O)cc2F)n1-c1ccc(F)cc1', 'pEC50', '> 7.00'),
  ('CC(C)(C)OC(=O)N1CCC(CSc2ncc(C(C)(C)c3ccc(F)c(F)c3)n2-c2ccc(F)cc2)CC1', 'pEC50', '6.00 to 7.00'),
  ('CC(C)(c1ccc(Cl)c(Cl)c1)c1cnc(C2CCN(C(=O)NN3CCCC3)CC2)n1-c1ccc(F)cc1', 'pEC50', '5.00 to 6.00'),
  ('COc1cc(-n2c(C(C)(C)c3ccc(S(N)(=O)=O)c(Cl)c3)cnc2SCc2ccc(S(=O)(=O)NC(=O)NN3CCOCC3)cc2Cl)ccc1F', 'pEC50', '6.00 to 7.00'),
  ('CC(C)(c1ccc(Cl)c(Cl)c1)c1cnc(SCc2ccc(C(=O)NCC(=O)O)cc2F)n1-c1ccc(F)cc1', 'pEC50', '6.00 to 7.00');

Okay, next one:
Prompt: Request the reported pEC50 associated with COc1ccc(C(C)(C)c2cnc(SCc3ccc(S(=O)(=O)NC(=O)NN4CCCC4)cc3Cl)n2-c2ccc(F)cc2)cc1Cl
Response: 6.00 to 7.00

---

biological target: human TGR5 (h-TGR5) (Homo sapiens, UniProt Q8TDU6); construct: expressed in transfected cells; assay: TGR5/CRE-Luciferiase Assay (HEK 293 hTGR5/CRE-Luc cells); format: cell-based; conditions: h-TGR5 CRE-Luc EC50, Table 1; read-out: CRE-Luc (EC50)
endpoint name: EC50

Examples with their reported EC50 follow.
INSERT INTO assay_data (compound, study_target, observed_value) VALUES
  ('CC(C)(c1ccc(Cl)c(Cl)c1)c1cnc(CNC2CCN(S(C)(=O)=O)CC2)n1-c1ccc(F)cc1', 'human TGR5 (h-TGR5) (Homo sapiens, UniProt Q8TDU6)', '1000 to 10000 nM'),
  ('CC(C)(c1ccc(Cl)c(Cl)c1)c1cnc(SCc2ccc(F)c(C#N)c2)n1-c1ccc(F)cc1', 'human TGR5 (h-TGR5) (Homo sapiens, UniProt Q8TDU6)', '100 to 1000 nM'),
  ('CC(C)(c1ccc(Cl)c(Cl)c1)c1cnc(COc2ccc3ncccc3c2)n1-c1ccc(F)cc1', 'human TGR5 (h-TGR5) (Homo sapiens, UniProt Q8TDU6)', '100 to 1000 nM');

Kindly give each listed record's EC50.
1. CC(C)(c1ccc(Cl)c(Cl)c1)c1cnc(S(=O)(=O)Cc2c(F)cccc2Cl)n1-c1ccc(F)cc1F
2. CC(C)(c1ccc(Cl)c(Cl)c1)c1cnc(SCc2c(F)cc(C(=O)NO)cc2F)n1-c1ccc(F)cc1
3. CC(C)(c1ccc(Cl)c(Cl)c1)c1cnc(S(=O)(=O)Cc2ccc(F)c(F)c2)n1-c1ccc(F)cc1
4. CC(C)(c1ccc(Cl)c(Cl)c1)c1cnc(C(=O)CCc2ccc(Cl)cc2Cl)n1-c1ccc(F)cc1
5. COc1cc(C(C)(C)c2cnc(SCc3c(F)cc(C(=O)NC(CCCCNC(=N)N)C(=O)O)cc3Cl)n2-c2ccc(F)cc2)ccc1Cl (centres unmarked)

Response:
1. 100 to 1000 nM
2. < 100 nM
3. 100 to 1000 nM
4. 1000 to 10000 nM
5. < 100 nM

---

Target: human TGR5 (h-TGR5) (Homo sapiens, UniProt Q8TDU6)
Construct: expressed in transfected cells
Sequence (Q8TDU6 1-330): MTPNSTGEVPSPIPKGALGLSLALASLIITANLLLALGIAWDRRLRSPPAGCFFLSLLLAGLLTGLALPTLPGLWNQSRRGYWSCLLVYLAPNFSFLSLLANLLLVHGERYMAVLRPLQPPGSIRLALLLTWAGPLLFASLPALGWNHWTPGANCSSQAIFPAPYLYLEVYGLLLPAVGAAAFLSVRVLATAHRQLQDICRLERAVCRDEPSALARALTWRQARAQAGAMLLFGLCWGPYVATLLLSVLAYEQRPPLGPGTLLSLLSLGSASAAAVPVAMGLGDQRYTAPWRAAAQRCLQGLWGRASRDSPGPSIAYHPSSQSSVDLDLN
Test: TGR5/CRE-Luciferiase Assay (HEK 293 hTGR5/CRE-Luc cells)
Type: cell-based
Details: h-TGR5 CRE-Luc EC50, Table 1; read-out: CRE-Luc (EC50)
endpoint name: EC50

INSERT INTO assay_data (molecule, endpoint_name, observed_value) VALUES
  ('CC(Sc1ccc(F)cc1Cl)c1ncc(C(C)(C)c2ccc(Cl)c(Cl)c2)n1-c1ccc(F)cc1 (stereo not shown)', 'EC50', '1 to 10 µM');

Kindly give each listed record's EC50.
1. COc1cc(C(C)(C)c2cnc(SCc3ccc(S(=O)(=O)NC(=O)NN4CCCC4)cc3Cl)n2-c2ccc(F)c(Cl)c2)ccc1Cl
2. COc1ccc(C(C)(C)c2cnc(SCc3ccc(S(=O)(=O)NC(=O)NN4CCCC4)cc3Cl)n2-c2ccc(F)c(C)c2)cc1Cl
3. CC(C)(C)OC(=O)N1CCC(OCc2ncc(C(C)(C)c3ccc(Cl)c(Cl)c3)n2-c2ccc(F)cc2)CC1
4. COCCNC(=O)c1cc(CSc2ncc(C(C)(C)c3ccc(Cl)c(Cl)c3)n2-c2ccc(F)cc2)ccc1F
5. COC(=O)c1cc(F)c(OCc2ncc(C(C)(C)c3ccc(Cl)c(Cl)c3)n2-c2ccc(F)cc2)c(Cl)c1
6. CC(C)(c1ccc(Cl)c(Cl)c1)c1cnc(CCc2c(F)cc(C(=O)N[C@@H](CCCNC(=N)N)C(=O)O)cc2Cl)n1-c1ccc(F)cc1

Response:
< 0.1 µM
0.1 to 1 µM
1 to 10 µM
0.1 to 1 µM
0.1 to 1 µM
0.1 to 1 µM
